Cited source for all entries: PubChem BioAssay

# test name: endothelial E-selectin expression blockers – imaging, HUVEC, immunofluorescence, MLSMR starter and 10KST1 sets, primary screen (AID 487);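 further: signal is fraction of cell area covered by stained E-selectin grains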
# condition set: HUVEC TNFalpha-induced E-selectin immunofluorescence imaging, at 2 µM; active compounds read high
Reported inhibition values for the following compounds.
recorded metric: inhibition (%)

>>> df
                                   compound  recorded_metric  result_number
0   CN(C)C(=O)CN(c1ccc(F)c(Cl)c1)S(C)(=O)=O       inhibition            5.1
1            CCCOc1ccc2nc(NC(=O)OC)[nH]c2c1       inhibition            -34
2  COC(=O)c1ccc(N2C(=O)CC(N3CCN(C(=O)c4ccco4)CC3)C2=O)cc1 (stereo unspecified)       inhibition           -195
3  CC(C(=O)N1c2ccc(F)cc2CCC1C)N1C(=O)c2ccccc2C1=O (stereo unspecified)       inhibition           -158
4  O=c1c2ccccc2nnn1CSc1nc2cc(Cl)ccc2c(=O)n1Cc1ccco1       inhibition           -101
5  CCOC(=O)N1CCC(NC(=O)c2ccc3nc(N4CCOCC4)sc3c2)CC1       inhibition             36

====

# system under test: Voltage-gated potassium channel subunit beta-2 (Rattus norvegicus)
# test name: enhancers of rat Kvbeta2 NADPH turnover – biochemical, NADPH fluorescence, primary screen (AID 623);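 further: fluorescence intensity change per second fitted from 20 to 320 s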
# condition set: Recombinant KvBeta, NADPH fluorescence decrease slope, 10 min; at 10 µM; active compounds read low
Reported NADPH fluorescence slope values for the following compounds.
recorded metric: NADPH fluorescence slope

In [3]: df
Out[3]:
                                    compound           recorded_metric  result_number
 0  COc1cc2c(cc1OC)C(c1cc(OC)c(OC)c(OC)c1)NCC2 (stereo unspecified)  NADPH fluorescence slope       -2.1e-05
 1   CC(=O)Nc1nc(-c2ccc(Cl)cc2)nc(C)c1C(C)=O  NADPH fluorescence slope       -3.2e-05
 2       O=C(Nc1ccc(N2CCOCC2)c(F)c1)c1ccncc1  NADPH fluorescence slope        8.4e-05
 3  COc1ccc(OC)c(S(=O)(=O)Nc2ccc(C(N)=O)cc2)c1  NADPH fluorescence slope      -0.000185
 4  CCn1ncc(C2=NOC(C(=O)N3CCC(C(N)=O)CC3)C2)c1C (stereo unspecified)  NADPH fluorescence slope        3.7e-05
 5  CC(=O)NCC(=O)OC(C)C(=O)Nc1ccc(C(C)=O)cc1 (stereo unspecified)  NADPH fluorescence slope       -4.9e-05
 6  FC(F)(F)C(F)(F)C(F)(F)c1nnc2ccc(N3CCOCC3)nn12  NADPH fluorescence slope        7.7e-05
 7   CC1(C)Cc2noc(N)c2C(C)(C)N1OC(=O)c1ccco1  NADPH fluorescence slope        2.9e-05
 8  Cc1cc2c(=O)n(CC(=O)N3CCN(c4ccccc4)CC3)cnc2s1  NADPH fluorescence slope        1.9e-06
 9  COc1cccc(N2CCN(c3ncnc4c3[nH]c3ccccc34)CC2C)c1 (stereo unspecified)  NADPH fluorescence slope         -8e-06
10  Cc1ccc2nsnc2c1S(=O)(=O)N1CCN(Cc2ccc3c(c2)OCO3)CC1  NADPH fluorescence slope       -4.9e-05
